- Assay System: Retinoic acid receptor RXR-alpha (Homo sapiens, UniProt P19793)
- Sequence (P19793 whole entry, the tested form may be a part): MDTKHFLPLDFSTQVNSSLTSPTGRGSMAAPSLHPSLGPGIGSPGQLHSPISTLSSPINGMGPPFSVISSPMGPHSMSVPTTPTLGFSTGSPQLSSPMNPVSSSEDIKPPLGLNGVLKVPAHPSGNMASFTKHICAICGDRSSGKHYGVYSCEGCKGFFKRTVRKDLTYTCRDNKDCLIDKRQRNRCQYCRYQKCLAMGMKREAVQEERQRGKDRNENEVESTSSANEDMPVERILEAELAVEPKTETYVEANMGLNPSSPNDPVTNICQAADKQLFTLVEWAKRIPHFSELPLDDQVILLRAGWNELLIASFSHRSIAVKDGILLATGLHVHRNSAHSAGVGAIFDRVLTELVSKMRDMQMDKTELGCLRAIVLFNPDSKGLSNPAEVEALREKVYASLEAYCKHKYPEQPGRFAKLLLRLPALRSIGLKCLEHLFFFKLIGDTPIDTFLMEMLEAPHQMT
- Procedure Summary: Agonist activity at Gal4-LBD fused RXRalpha (unknown origin) expressed in HEK293T cells after 14 to 16 hrs by dual-Glo luciferase assay
Readout Type: EC50 (µM)

>  <Structure Smiles>
CC(C)(C)c1cc(-c2ccc(CCC(=O)O)cc2)cc(C(C)(C)C)c1

>  <Unit Spec>
µM

>  <EC50>
1.5

$$$$
>  <Structure Smiles>
O=C(O)c1ccc(-c2cc(Cl)cc(Cl)c2)cc1

>  <Unit Spec>
µM

>  <EC50>
9.3

$$$$
>  <Structure Smiles>
CC(C)c1cccc(-c2ccc(C(=O)O)cc2)c1

>  <Unit Spec>
µM

>  <EC50>
14.3

$$$$
>  <Structure Smiles>
COc1cc(OC)cc(-c2ccc(C(=O)O)cc2)c1

>  <Unit Spec>
µM

>  <EC50>
25.4

$$$$
>  <Structure Smiles>
CC(C)(C)c1cc(-c2ccc(CC(=O)O)cc2)cc(C(C)(C)C)c1

>  <Unit Spec>
µM

>  <EC50>
0.47

$$$$

1 = Cc1cc(C)cc(-c2ccc(C(=O)O)cc2)c1
2 = CC(C)(C)c1cc(-c2cccc(C(=O)O)c2)cc(C(C)(C)C)c1
Given 1 and 2 , report the one with the higher recorded EC50. Please reply using the label of the selected record.
1
(1: 9.6 µM, 2: 3.7 µM)

A = Cc1cc(-c2cc(C(F)(F)F)cc(C(F)(F)F)c2)ccc1CC(=O)O
B = O=C(O)c1cccc(-c2cc(Cl)cc(Cl)c2)c1
Would you let me know which has the greater EC50 value, A or B ? The response must carry the label of the picked entry.
B
(B: 15.5 µM, A: 0.21 µM)

I = CCc1cc(CC)cc(-c2ccc(C(=O)O)cc2)c1
II = CCOc1cccc(-c2ccc(C(=O)O)cc2)c1
Could you tell me which of these two has the smaller EC50 figure? First: I Second: II Let me know the label of the one you choose.
I
